Quick list: Ratio per entry.
target: Amine oxidase [flavin-containing] A (Homo sapiens) (UniProt P21397); assay: Ratio between TN and Km against MAO A
Sequence (P21397 whole entry, looked up): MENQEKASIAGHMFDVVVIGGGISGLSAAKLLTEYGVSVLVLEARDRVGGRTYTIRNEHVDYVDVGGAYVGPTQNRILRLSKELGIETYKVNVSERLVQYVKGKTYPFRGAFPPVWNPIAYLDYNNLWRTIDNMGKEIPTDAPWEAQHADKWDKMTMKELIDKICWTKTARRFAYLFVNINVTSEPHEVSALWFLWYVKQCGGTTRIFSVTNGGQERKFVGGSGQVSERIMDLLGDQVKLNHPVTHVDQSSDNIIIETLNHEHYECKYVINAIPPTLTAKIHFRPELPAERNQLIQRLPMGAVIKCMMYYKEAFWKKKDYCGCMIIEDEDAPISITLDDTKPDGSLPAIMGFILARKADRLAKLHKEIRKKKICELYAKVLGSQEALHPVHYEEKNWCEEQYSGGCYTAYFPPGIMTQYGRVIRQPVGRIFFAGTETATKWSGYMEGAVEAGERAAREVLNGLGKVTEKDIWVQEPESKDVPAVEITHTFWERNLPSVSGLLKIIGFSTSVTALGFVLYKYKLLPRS
Write the number on its own, no unit after it.

Example results:
CN1CC=C(CCc2cccc3ccccc23)CC1; 3187
NCc1ccccc1; 13
NCCC(=O)c1ccccc1N; 860
CN1CC=C(CCc2ccc3ccccc3c2)CC1; 2225
CN1CC=C(c2cccs2)CC1; 28

Could you tell me which Ratio is on file for `CN1CC=C(CCc2ccccc2)CC1` ?
1120

I am curious: what Ratio value has been reported for `CN1CC=C(c2cccc3ccccc23)CC1` ?
1893

Entry `CN1CC=C(Cc2ccccc2)CC1` : reported Ratio = ?
139

----------
target: Amine oxidase [flavin-containing] B (Bos taurus, UniProt P56560); assay: Ratio of turnover number(TN)and Km for MAO B; conditions: cattle
Sequence (P56560 whole entry): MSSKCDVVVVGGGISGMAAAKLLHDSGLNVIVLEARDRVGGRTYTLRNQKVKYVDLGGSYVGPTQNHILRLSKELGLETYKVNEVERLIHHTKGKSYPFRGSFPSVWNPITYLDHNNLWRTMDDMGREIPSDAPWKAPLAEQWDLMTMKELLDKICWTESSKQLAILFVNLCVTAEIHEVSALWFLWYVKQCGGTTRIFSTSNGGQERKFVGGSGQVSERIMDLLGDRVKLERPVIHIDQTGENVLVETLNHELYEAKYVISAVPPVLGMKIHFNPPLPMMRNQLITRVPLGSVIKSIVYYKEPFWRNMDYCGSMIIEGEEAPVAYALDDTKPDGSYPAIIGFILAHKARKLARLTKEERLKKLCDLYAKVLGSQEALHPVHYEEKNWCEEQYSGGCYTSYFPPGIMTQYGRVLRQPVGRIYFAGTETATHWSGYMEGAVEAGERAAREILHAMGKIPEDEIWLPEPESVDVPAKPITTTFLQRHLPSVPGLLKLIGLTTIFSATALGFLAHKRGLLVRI
Threshold-based label: Ratio under 500 gives satisfied, Ratio not under 500 gives not satisfied.

# example entries with known answers
CN1CC=C(c2cccs2)CC1; satisfied
CN1CC=C(c2ccc3ccccc3c2)CC1; satisfied
NCc1ccccc1; not satisfied
CN1CC=C(CCc2ccccc2)CC1; not satisfied

# check: Ratio < 500 for `CN1CC=C(CCc2cccc3ccccc23)CC1`
satisfied

----------
biological target: Amine oxidase [flavin-containing] A (Homo sapiens, UniProt P21397); test: Turnover number against MAO A (umol of substrate/min per umol of enzyme).
Please mark true if the recorded TN is equal to or greater than 100 min⁻¹, and false if it falls below.

Given `CN1CC=C(Cc2ccsc2)CC1` , state whether its TN is at least 100 min⁻¹.
false

Determine whether measured TN meets or exceeds 100 min⁻¹ for `CN1CC=C(Cc2ccccc2)CC1`
false

Hi, just wondering whether `CN1CC=C(CCc2cccc3ccccc23)CC1` shows TN of 100 min⁻¹ or higher.
true

Test whether the compound NCc1ccccc1 [BENZYLAMINE] records TN of 100 min⁻¹ or higher.
false

Please tell me: is the compound `CN1CC=C(CCc2ccsc2)CC1` at or over 100 min⁻¹ in terms of TN?
false

Confirm if TN reported for the compound `CN1CC=C(c2ccc3ccccc3c2)CC1` is 100 min⁻¹ or above.
false

Is TN for `CN1CC=C(c2cccs2)CC1` at or above 100 min⁻¹?
false

Assess whether reported TN for `CN1CC=C(c2ccccc2)CC1` sits at 100 min⁻¹ or higher.
false

Does the compound `CN1CC=C(CCc2ccccc2)CC1` have recorded TN that is 100 min⁻¹ or more?
true

Does `CN1CC=C(c2ccsc2)CC1` have a reported TN of at least 100 min⁻¹?
false

Is it the case that `CN1CC=C(CCc2cccs2)CC1` has TN reaching or exceeding 100 min⁻¹?
false

Form field: TN at least 100 min⁻¹? Entry: NCCC(=O)c1ccccc1N [KYNURAMINE]
true

Could you please find out whether `CN1CC=C(Cc2ccc3ccccc3c2)CC1` has TN that meets 100 min⁻¹ or exceeds it?
true

Test whether the compound `CN1CC=C(Cc2cccs2)CC1` records TN of 100 min⁻¹ or higher.
false

# check: TN of `CN1CC=C(c2cccc3ccccc23)CC1` is greater than or equal to 100 min⁻¹
true

Check if TN >= 100 min⁻¹ (inclusive). Item: `CN1CC=C(Cc2cccc3ccccc23)CC1`
true

Kindly determine if TN recorded for `CN1CC=C(CCc2ccc3ccccc3c2)CC1` is above or exactly 100 min⁻¹.
false
